# target_or_test_system: Cytochrome P450 1A2 (Homo sapiens)
# test_method_notes: Cytochrome panel assay with activity outcomes
# run_conditions: recombinant CYP, pro-luciferin dealkylation, luminescence, p450-cyp1a2; series mostly up to 57.1 µM
Hit rate of the full screen: of about 16,000 compounds, about 5,700 (36%) were called active. Another 24% or so got no clear call; they are omitted. The call rests on the fitted dose curve; in most records, active means well fitted curve in the direction sought with a large enough effect; inconclusive means small, poorly fitted or top-dose-only effect, or effect the other way; inactive means no such curve, though single readings can be large or run the other way. The list shows a part of the results.
Mark one answer only. Choices: t for active, f for inactive

input: What classification did Cc1cc(C(F)F)n2nc(C(=O)Nc3cccnc3Cl)nc2n1 end up with in this test?
output: f

input: What classification did Cc1ccc(N=CC2=C(O)CC(c3ccco3)CC2=O)cc1 (centres undefined) end up with in this test?
output: t

input: What classification did C=C[C@@]1(C)CC(=O)[C@@]2(O)[C@@]3(C)[C@@H](O)CCC(C)(C)[C@@H]3[C@H](OC(=O)CCN(C)C)[C@H](OC(C)=O)[C@@]2(C)O1 end up with in this test?
output: f

input: What classification did CC(C)=CCC1=C(OCC(=O)O)C(=O)c2ccccc2C1=O end up with in this test?
output: t

input: What classification did COc1ccccc1Nc1nc(-c2sc(NC(=O)c3ccccc3)nc2C)cs1 end up with in this test?
output: f

###

Task for the reader: assign each of the following compounds its reported activity, negative = inhibition.
# target_or_test_system: Cytochrome P450 1A2 (Homo sapiens)
# test_method_notes: Cytochrome panel assay with activity outcomes; on activity, negative = inhibition: on the % scale 0 is the no-effect control and ±100 the full control effect
# run_conditions: recombinant CYP, pro-luciferin dealkylation, luminescence, p450-cyp1a2; series mostly up to 57.1 µM
Among all 16,000 compounds or so, about 5,700 (36%) were called active. Roughly 24% stayed inconclusive and do not appear here. The list shows a part of the results.

Hi there! I need activity, negative = inhibition for each item below, if you can.
1. CC(CC(=O)O)(CC(=O)O)C(=O)O
2. Cc1c(Cl)c(S(N)(=O)=O)cc(S(N)(=O)=O)c1NC(=O)c1ccc(Cl)cc1

output:
1. -5.85% [at 11.4 µM] (inactive)
2. -2.26% [at 11.4 µM] (inactive)

Hi there! I need activity, negative = inhibition for each item below, if you can.
1. Cn1c(=O)c2c(ncn2CN2CCN(Cn3cnc4c3c(=O)n(C)c(=O)n4C)CC2)n(C)c1=O
2. Cc1ccc2ccccc2c1CSc1nc(N)nc2c1ncn2CC(C)C
3. CC(C)=CCC/C(C)=C/CO/N=C1/C[C@@H](O)[C@@H](O)[C@@H]2[C@@H]3C(=O)N(Cc4ccccc4)C(=O)[C@H]3CC[C@H]12
4. C[C@]1(O)CC[C@H]2[C@H]3CC=C4N5CCN=C5CC[C@@]4(C)[C@H]3CC[C@@]21C
5. CC[C@H]1CN(C)[C@H]2Cc3c([nH]c4ccccc34)C(=O)C[C@H]1[C@H]2C(=O)OC
6. CCOC(=O)N/N=C1/C[C@@H](O)[C@@H](O)[C@@H]2[C@@H]3C(=O)N(c4cccc(Oc5ccccc5)c4)C(=O)[C@H]3CC[C@H]12
7. O=C(O)CC1(CC(=O)O)Nc2ccccc2SC1=O

output:
1: -18.2% [at 2.29 µM] (inactive); 2: -20.8% [at 2.29 µM] (inactive); 3: 3.92% [at 11.4 µM] (inactive); 4: -12.8% [at 2.29 µM] (inactive); 5: -10.5% [at 11.4 µM] (inactive); 6: -3.4% [at 11.4 µM] (inactive); 7: 2.04% [at 2.29 µM] (inactive)
